# test: amyloid nucleation score (Sup35N fusion, yeast selection) (log enrichment); library NNK3; higher = more nucleation; inactive = no reads after selection;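 note: zero at mode of non-aggregating sequences after 7 days selection at 30°C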
observable: amyloid nucleation score

Sample answers from the record:
[
  {
    "substance": "LCKDLDTSCVGSFYIFRQKG",
    "amyloid nucleation score": "inactive"
  },
  {
    "substance": "YLDNVFNGPAFLYSGSRDR",
    "amyloid nucleation score": 1.02
  },
  {
    "substance": "PNRVGAVPGG",
    "amyloid nucleation score": "inactive"
  },
  {
    "substance": "FVFIQSHYQNMRFGKF",
    "amyloid nucleation score": "inactive"
  },
  {
    "substance": "GCIKGVICLTHC",
    "amyloid nucleation score": "inactive"
  }
]

Note down amyloid nucleation score recorded for `FNWMPMGEKSAWAVRVRSAC`
inactive

Provide measured amyloid nucleation score value, entry: `GYFARLR`
inactive

State its amyloid nucleation score: `YIGIHLTSFRSTSSYYDRVL`
inactive

Determine from records and report amyloid nucleation score for `SLCDSVGSKSVF`
inactive

Values compiled from the supplement of paper PMC12042874.
